Property: composite z-score; scope: individual molecules
- Tested on: Human papillomavirus type 1a protein E7 (residues 44-93)
- protocol notes: small molecules binding HPV E7 44-93 – biochemical, small-molecule microarray, residues 44-93, 635 nm fluorescence, primary screen (AID 1108);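 also: E7 fragment applied at 1 µg/mL in TBST for 1 h at 4 C; score combines spot fluorescence with its signal to noise ratio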
- experimental context: fluorescence 635 nm, higher = more signal
readout label: composite z-score

> print(dat)
                                   molecule  endpoint.value
1  O=C1C2C=CC(C(O)c3ccccn3)N(Nc3ccccc3F)C2C(=O)N1c1ccccc1 (centres undefined)           0.642
2  C[N+](C)(C)CCCC[C@@H]1NC(=O)[C@@H]2C[C@H](C(=O)NCCCCCCNC(=O)CS)[C@H](c3cccc(OCCO)c3)N2C1=O          -0.568
3  Cc1ccc(S[C@]2(C(=O)NCCN3CCOCC3)CC(=O)N(C3CCCCC3)[C@@H]2c2ccc(CO)cc2)cc1            1.29
4  CCCNC(=O)[C@@]1(C)c2ccccc2C(=O)N(Cc2cc(C(F)(F)F)cc(C(F)(F)F)c2)[C@H]1c1ccc(CO)cc1            1.23

###

- protocol notes: compound effects on hepatocellular carcinoma cell viability – HepG2, calcein-AM fluorescence, 48 h, basal, profiling panel (AID 1164); also: test concentration not given here
- experimental context: higher = more signal
readout label: z-score

compound	readout label	endpoint value
COc1ccc(C(=O)Nc2cccc(CN3C(=O)[C@@]4(O[C@@H](CCn5cc([C@H](O)c6ccccc6)nn5)[C@H]([Si](C)(C)c5ccc(OC)cc5)[C@H]4C)c4ccccc43)c2)cc1	z-score	-3.44
COCCOC(=O)N1C(=O)[C@@]2(c3cc(C#CCCO)ccc31)[C@H](c1ccc(O)cc1)N1[C@H](c3ccccc3)[C@H](c3ccccc3)OC(=O)[C@H]1[C@@H]2C(=O)N1CCCCCCC1	z-score	1.18
CCOC1=C2C(c3ccc(C)cc3)N(S(=O)(=O)c3ccc(C)cc3)CC2n2c(=O)n(-c3ccccc3)c(=O)n2C1 (stereo not drawn)	z-score	-0.422
CC(C)[C@H]1COC(=O)N1C(=O)[C@H]1[C@@H](c2ccccc2)N(c2ccccc2)O[C@@H]1C	z-score	0.612
CCCC[C@H]1OB(O)C[C@H]2C1=C(C)Cn1c(=O)n(-c3ccccc3)c(=O)n12	z-score	0.173
O=C(NCCN1CCOCC1)[C@@H]1c2ccccc2C(=O)N(Cc2cc(F)cc(C(F)(F)F)c2)[C@H]1c1ccc(CO)cc1	z-score	1.2
CN1C(=O)C2C(C1=O)C1C=C(c3ccc(CO)cc3)C2C(C2CC2)N1Cc1sc2ccccc2c1Cl (stereo not drawn)	z-score	1.79
C=CCOC(=O)[C@H]1[C@@H]2C(=O)O[C@@H](c3ccccc3)[C@@H](c3ccccc3)N2[C@@H](c2ccc(OCCOC(=O)[C@H]3C[C@H]4C(=O)N[C@@H](CCCC[N+](C)(C)C)C(=O)N4[C@H]3c3ccc(O)cc3)cc2)[C@]12C(=O)Nc1ccccc12	z-score	0.549

###

Property: z-score; scope: individual compounds
- protocol notes: change in splice reporter luminescence, either direction, cell-based, HEK293, spliceosome inhibition project, primary screen (AID 1101);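 also: HEK293 cells carrying a splicing-competent luciferase reporter gene; test concentration not given here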
- experimental context: HEK293 splicing luciferase reporter, 24 h, higher = more signal, called active from +8 up or from −8 down
readout label: z-score

compound	readout label	endpoint value
CC1CC/C=C\[C@H]2OC34C=CCN(Cn5nnc6ccccc65)C(=O)[C@H]3N(CCCO)C(=O)[C@@H]4C2C(=O)O1 (some centres undefined)	z-score	-0.538
O=C(N1CCCCC1)[C@]1(CCS(=O)(=O)c2ccccc2)N=C(c2ccc(OCCCO)cc2)O[C@@H]1c1ccccc1	z-score	0.25
Cc1ccc(N2C(=O)c3ccccc3[C@@H](C(=O)NCC(C)C)[C@@H]2c2ccc(CO)cc2)nc1	z-score	0.337
COCCOC(=O)N1C(=O)[C@@]2(c3cc(C#CCCO)ccc31)[C@H](c1ccc(O)cc1)N1[C@H](c3ccccc3)[C@H](c3ccccc3)OC(=O)[C@H]1[C@@H]2C(=O)N1CCCCCCC1	z-score	0.242
CO[C@H]1O[C@H](CO)[C@@H](OC(=O)Nc2ccc(C(F)(F)F)cc2)[C@H](OC(=O)Nc2ccccc2)[C@@H]1OC(=O)Nc1ccccc1	z-score	-0.577
CCCCCN1CC=CC23O[C@@H]4C=CCCOC(=O)C4[C@H]2C(=O)N(CCCO)[C@@H]3C1=O (some centres undefined)	z-score	-0.588
CCCCC(=O)N(Cc1ccccc1F)[C@@H]1CC(C(=O)NCCO)=C[C@H](Oc2c(I)cc(CO)cc2OC)[C@H]1O	z-score	-0.0457
[N-]=[N+]=Nc1ccccc1[C@H]1OC(c2ccc(OCCCO)cc2)=N[C@@]1(CCS(=O)(=O)c1ccccc1)C(=O)N1CCOCC1	z-score	-0.829
CCCCC(=C=CC[C@H](O)c1ccccc1OCCO)C[C@H](O)c1cc(Cl)cc(Cl)c1O	z-score	0.23
Cc1ccc(S(=O)(=O)N2CC(C(=O)O)=CCC2c2ccccc2)cc1 (centres undefined)	z-score	0.566
COc1ccc([Si](C)(C)[C@@H]2[C@@H](CCO)O[C@]3(C(=O)N(Cc4cccc(N5CCCCC5=O)c4)c4ccccc43)[C@H]2C)cc1	z-score	-2.96
O=C(CS)NCCCCCCNC(=O)[C@H]1C[C@H]2C(=O)N3CCC[C@H]3C(=O)N2[C@H]1c1ccc(O)cc1	z-score	1.46
O=C(NCCN1CCOCC1)[C@@H]1c2ccccc2C(=O)N(Cc2cc(F)cc(C(F)(F)F)c2)[C@H]1c1ccc(CO)cc1	z-score	0.284
C=CCC(OC(C)=O)[C@@H]1[C@@H](N(Cc2cc3ccccc3o2)C(=O)c2ccc(C)cc2)c2cc(OCCCO)ccc2N1C(=O)c1ccc(-c2ccccc2)cc1 (some centres undefined)	z-score	-3.23
CN1C(=O)C2C(C1=O)C1C=C(c3ccc(CO)cc3)C2C(C2CC2)N1Cc1cc2c(cc1Br)OCO2 (centres undefined)	z-score	0.0287
COC(=O)[C@@]1(Cc2ccc(OC)cc2)[C@H]2c3cc(C(=O)N4CCCC4)n(CCN4CCOCC4)c3C[C@H]2CN1C(=O)c1ccccc1	z-score	0.0643
C=C(CCCC)/C(=C/C[C@@H](OC(=O)c1ccncc1)c1ccc(CO)o1)c1cc(C(=O)OC)ccc1OC	z-score	0.674
C=C(/C(=C/C[C@@H](OC(=O)c1ccncc1)c1ccc(CO)o1)c1cc(C(=O)OC)ccc1OC)C(C)C	z-score	0.614
Cc1ccc(C(C)CC(O)C2C=CC3C(=O)NC(=O)C3N2Nc2ccccn2)o1 (centres undefined)	z-score	0.802
CC1(C)C(=O)C(c2ccccc2)=C2CN3C(=O)N(CCc4ccccc4)C(=O)C3(Cc3ccccc3)C=C21 (centres undefined)	z-score	0.917
O=C1C2C=CC(C(O)c3cccc4ccccc34)N(n3cnnc3)C2C(=O)N1Cc1ccccc1 (centres undefined)	z-score	0.228
[N-]=[N+]=NCc1ccccc1C[C@]1(C(N)=O)N=C(c2ccc(OCCCO)cc2)O[C@H]1c1ccccc1N=[N+]=[N-]	z-score	-0.288
C=CC[C@@]1(C(=O)OC)N=C(c2ccc(OCCCO)cc2)O[C@@H]1c1ccccc1CN=[N+]=[N-]	z-score	-1.54
O=C1O[C@@H](c2ccccc2)[C@@H](c2ccccc2)N2[C@@H](c3ccc(O)cc3)[C@]3(C(=O)Nc4ccc(C#CCCO)cc43)[C@@H](C(=O)N3CCCCCCC3)[C@H]12	z-score	0.62

###

- protocol notes: probe aShh binding to arrayed compounds – biochemical, biotinylated probe, 635/667 nm fluorescence, primary screen (AID 1114);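 also: probe is biotin-labelled aShh protein from a stem cell growth factor screen; measures binding of labelled protein to compounds printed on the slide; score merges feature fluorescence at 667 nm with signal-to-noise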
- experimental context: small-molecule microarray, higher = more signal
Property: composite z-score; scope: individual compounds

compound	composite z-score
[N-]=[N+]=NCc1ccccc1C[C@]1(C(=O)NCC(O)CO)COC(c2ccc(OCCCO)cc2)=N1 (stereo partly drawn)	-0.0341
[N-]=[N+]=Nc1ccccc1C[C@]1(C(=O)N2CCCCC2)N=C(c2ccc(OCCCO)cc2)O[C@H]1c1ccccc1N=[N+]=[N-]	0.294
C=CCN1Cc2ccccc2C[C@@]2(COC(c3ccc(OCCCO)cc3)=N2)C1=O	0.13
C=C[C@@H](C)[C@@H](OC(=O)Nc1ccc(OC)cc1)c1ccc(O)c2ccccc12	-0.223
O=C(NCC(O)CO)[C@@]1(Cc2ccccc2)N=C(c2ccc(OCCCO)cc2)O[C@H]1c1ccccc1 (stereo partly drawn)	0.334
CCCCC(=O)N(Cc1ccccc1F)[C@@H]1CC(C(=O)NCCO)=C[C@H](Oc2c(I)cc(CO)cc2OC)[C@H]1O	0.123
CS(=O)(=O)CCOC(=O)C1=CC(c2ccc(CO)cc2)=CC(c2cccs2)N(Cc2cccc(OC(F)(F)F)c2)C=C1C(=O)OCCS(C)(=O)=O (stereo not drawn)	-0.102
COC(=O)c1nc2oc1CC[C@@H](CO)NC(=O)N(C)Cc1cn(nn1)C[C@H](Cc1ccccc1)NC2=O	0.0639
COCCOC(=O)N1C(=O)[C@@]2(c3cc(C#Cc4ccc(OC)cc4)ccc31)[C@H](c1ccc(O)cc1)N1[C@H](c3ccccc3)[C@H](c3ccccc3)OC(=O)[C@H]1[C@@H]2C(=O)N1CCN(c2ncccn2)CC1	-0.441
[N-]=[N+]=Nc1ccccc1[C@H]1OC(c2ccc(OCCCO)cc2)=N[C@@]1(CCS(=O)(=O)c1ccccc1)C(=O)N1CCOCC1	1.39
CCOC(=O)N1C(c2ccc(OCCCO)cc2)=NC(C(=O)OC)N1C(=O)OCC (stereo not drawn)	-0.279
CN(C)CCCCNC(=O)[C@@H]1C[C@@H]2C(=O)N[C@@H](CCCCN)C(=O)N2[C@@H]1c1cccc(OCCO)c1	0.0735
CC(C)(C)OC(=O)CC[C@]1(C(=O)NCC(O)CO)N=C(c2ccc(OCCCO)cc2)O[C@H]1c1ccccc1CN=[N+]=[N-] (stereo partly drawn)	0.541
C=CCC(OC(C)=O)[C@@H]1[C@@H](N(Cc2ccc(-c3ccccc3)cc2)C(=O)c2ccc(C)cc2)c2cc(OCCCO)ccc2N1C(=O)c1ccc2ccccc2n1 (stereo partly drawn)	-0.181
Cn1c2c(c3ccccc31)C(=O)C1NC2C=CC1(C)C(=O)OCc1ccccc1 (stereo not drawn)	0.123
COc1ccc([Si](C)(C)[C@H]2[C@H](CCO)O[C@@]3(C(=O)N(Cc4ccccc4)c4ccc(N5C(=O)COc6ccccc65)cc43)[C@@H]2C)cc1	0.108
C=CCNC(=O)[C@@H]1[C@H]2C(=O)O[C@H](c3ccccc3)[C@H](c3ccccc3)N2[C@H](c2ccccc2OCCO)[C@@]12C(=O)N(C(=O)OCCOC)c1ccc(C#CCC(C(=O)OC)C(=O)OC)cc12	2.18
O=C1O[C@@H](c2ccccc2)[C@@H](c2ccccc2)N2[C@@H](c3ccc(O)cc3)[C@]3(C(=O)Nc4ccccc43)[C@@H](C(=O)N3CCCCCCC3)[C@H]12	2.07
CN1C(=O)C2C=CC(C(O)C=Cc3ccc([N+](=O)[O-])cc3)N(N3CCCCC3)C2C1=O (stereo not drawn)	0.926
C=C(CCCC)C(=O)CC[C@H](OC(=O)c1ccccc1-c1ccccc1C(=O)O)c1ccc(CO)o1	-0.108
CCCCCCCCCCC(O)C1C=CC2C(=O)N(c3ccccc3)C(=O)C2N1Nc1ccc([N+](=O)[O-])cc1 (stereo not drawn)	-0.0146
O=C(NCc1ccccc1)[C@@H]1c2ccccc2C(=O)N(C2CCCCC2)[C@H]1c1ccc(CO)cc1	-0.247
CC(c1ccccc1)C(O)C1C=CC2C(=O)N(c3ccccc3)C(=O)C2N1Nc1ccccc1F (stereo not drawn)	-0.203
